Attribution: patent US20250059171A1

pIC50: −log10 of the molar value.
This section lists pIC50 readings for SARS-CoV 3CLpro (Severe acute respiratory syndrome coronavirus, UniProt P0C6X7).
readout kind: pIC50

[[record]]
molecule = "CC[C@H](C)[C@H](NC(=O)c1ccccc1)C(=O)N1C[C@@H]2CCC[C@@H]2[C@H]1C(=O)NN(C[C@@H]1CCNC1=O)C(=O)[C@H](F)Cl"
readout_kind = "pIC50"
recorded_result = 7.96

[[record]]
molecule = "C[C@H]1C[C@@H](C(=O)NN(C[C@@H]2CCNC2=O)C(=O)[C@H](F)Cl)N(C(=O)[C@@H](NC(=O)C(F)(F)F)C(C)(C)C)C1"
readout_kind = "pIC50"
recorded_result = 7.70

[[record]]
molecule = "CC[C@@H](C)[C@H](NC(=O)C(F)F)C(=O)N1C[C@H]2[C@@H]([C@H]1C(=O)NN(C[C@@H]1CCNC1=O)C(=O)[C@H](F)Cl)C2(C)C"
readout_kind = "pIC50"
recorded_result = 7.85

[[record]]
molecule = "CCC(C)(C)[C@H](NC(=O)C1CC1)C(=O)N1CC(C)(C)C[C@H]1C(=O)NN(C[C@@H]1CCCNC1=O)C(=O)[C@H](F)Cl [Example 168a]"
readout_kind = "pIC50"
recorded_result = 7.80

[[record]]
molecule = "CC(C)(C)[C@H](Nc1cc(F)ncn1)C(=O)N1C[C@@H]2CCC[C@@H]2[C@H]1C(=O)NN(C[C@@H]1CCNC1=O)C(=O)[C@H](F)Cl"
readout_kind = "pIC50"
recorded_result = 7.92

[[record]]
molecule = "CC[C@H](C)[C@H](NC(=O)[C@H](F)Cl)C(=O)N1C[C@@H]2CCC[C@@H]2[C@H]1C(=O)NN(C[C@H]1CCCNC1=O)C(=O)[C@H](F)Cl"
readout_kind = "pIC50"
recorded_result = 7.77


###

This section lists IC50 readings for MERS-CoV 3CLpro (Middle East respiratory syndrome-related coronavirus).
readout kind: IC50 (µM)

[[record]]
compound = "CCC(CC)[C@H](NC(=O)C1CC1)C(=O)N1C[C@@H]2CCC[C@@H]2[C@H]1C(=O)NN(C[C@@H]1CCCNC1=O)C(=O)[C@H](F)Cl [Example 171a]"
result_unit = "µM"
recorded_result = 0.13

[[record]]
compound = "CC[C@H](C)[C@H](NC(=O)CC(F)(F)F)C(=O)N1C[C@@H]2CCC[C@@H]2[C@H]1C(=O)NN(C[C@@H]1CCNC1=O)C(=O)[C@H](F)Cl"
result_unit = "µM"
recorded_result = 0.104

[[record]]
compound = "CC1(C)[C@@H]2[C@@H](C(=O)NN(C[C@@H]3CCNC3=O)C(=O)[C@@H](F)Cl)N(C(=O)[C@@H](NC(=O)C3(F)CC3)C3CCC3)C[C@@H]21"
result_unit = "µM"
recorded_result = 0.149

[[record]]
compound = "CCC(C)(C)[C@H](NC(=O)C(F)F)C(=O)N1C[C@H]2[C@@H]([C@H]1C(=O)NN(C[C@@H]1CCNC1=O)C(=O)[C@H](F)Cl)C2(C)C"
result_unit = "µM"
recorded_result = 0.112

[[record]]
compound = "CC(F)(F)C(=O)N[C@H](C(=O)N1C[C@H]2[C@@H]([C@H]1C(=O)NN(C[C@@H]1CCNC1=O)C(=O)[C@@H](F)Cl)C2(C)C)C(C)(C)C"
result_unit = "µM"
recorded_result = 0.069

[[record]]
compound = "CC(C)(C)[C@H](NC(=O)C1(F)CCC1)C(=O)N1C[C@H]2[C@@H]([C@H]1C(=O)NN(C[C@@H]1CCNC1=O)C(=O)[C@H](F)Cl)C2(C)C"
result_unit = "µM"
recorded_result = 0.115

[[record]]
compound = "CC1(C)C[C@@H](C(=O)NN(C[C@@H]2CCNC2=O)C(=O)[C@H](F)Cl)N(C(=O)[C@@H](NC(=O)C(F)(F)F)C(C)(C)C)C1"
result_unit = "µM"
recorded_result = 0.136

[[record]]
compound = "CC(C)(C)[C@H](NC(=O)[C@H]1CC1(F)F)C(=O)N1C[C@@H]2CCC[C@@H]2[C@H]1C(=O)NN(C[C@@H]1CCNC1=O)C(=O)[C@H](F)Cl"
result_unit = "µM"
recorded_result = 0.077

[[record]]
compound = "CCC(C)(C)[C@H](NC(=O)C1CC1)C(=O)N1C[C@H]2[C@@H]([C@H]1C(=O)NN(C[C@@H]1CCNC1=O)C(=O)[C@@H](F)Cl)C2(C)C"
result_unit = "µM"
recorded_result = 0.089

[[record]]
compound = "CC[C@@H](C)[C@H](NC(=O)C1CC(F)(F)C1)C(=O)N1C[C@H]2[C@@H]([C@H]1C(=O)NN(C[C@@H]1CCNC1=O)C(=O)[C@H](F)Cl)C2(C)C"
result_unit = "µM"
recorded_result = 0.113

[[record]]
compound = "CC[C@H](C)[C@H](NC(=O)C(C)C)C(=O)N1C[C@@H]2CCC[C@@H]2[C@H]1C(=O)NN(C[C@@H]1CCNC1=O)C(=O)[C@H](F)Cl"
result_unit = "µM"
recorded_result = 0.076

[[record]]
compound = "CC[C@@H](C)[C@H](NC(=O)[C@H](C)F)C(=O)N1C[C@H]2[C@@H]([C@H]1C(=O)NN(C[C@@H]1CCNC1=O)C(=O)[C@H](F)Cl)C2(C)C"
result_unit = "µM"
recorded_result = 0.086

[[record]]
compound = "CC[C@H](C)[C@H](NC(=O)C1CC1)C(=O)N1C[C@H]2[C@@H]([C@H]1C(=O)NN(C[C@@H]1CCNC1=O)C(=O)[C@H](F)Cl)C2(C)C"
result_unit = "µM"
recorded_result = 0.062

[[record]]
compound = "CCC(=O)N[C@H](C(=O)N1C[C@@H]2CCC[C@@H]2[C@H]1C(=O)NN(C[C@@H]1CCNC1=O)C(=O)[C@H](F)Cl)C(C)(C)C"
result_unit = "µM"
recorded_result = 0.08


###

This section lists IC50 readings for HCoV-229E 3CLpro (Human coronavirus 229E, UniProt P0C6X1).
readout kind: IC50 (nM)

[[record]]
molecule = "CC(C)(C)[C@H](NC(=O)C(F)(F)F)C(=O)N1CCC(C)(C)[C@@H]1C(=O)NN(C[C@@H]1CCNC1=O)C(=O)[C@H](F)Cl [Example 155b]"
system = "HCoV-229E 3CLpro (Human coronavirus 229E, UniProt P0C6X1)"
measurement_qualifier = ">"
recorded_result = 10000

[[record]]
molecule = "CCC(C)(C)[C@H](NC(=O)C1(F)CC1)C(=O)N1C[C@H]2[C@@H]([C@H]1C(=O)NN(C[C@@H]1CCNC1=O)C(=O)[C@H](F)Cl)C2(C)C"
system = "HCoV-229E 3CLpro (Human coronavirus 229E, UniProt P0C6X1)"
measurement_qualifier = "="
recorded_result = 28

[[record]]
molecule = "CCC(CC)[C@H](NC(=O)C1(F)CC1)C(=O)N1C[C@H]2[C@@H]([C@H]1C(=O)NN(C[C@@H]1CCNC1=O)C(=O)[C@H](F)Cl)C2(C)C"
system = "HCoV-229E 3CLpro (Human coronavirus 229E, UniProt P0C6X1)"
measurement_qualifier = "="
recorded_result = 25

[[record]]
molecule = "CCC(C)(C)[C@H](NC(=O)C1CC1)C(=O)N1CC(C)(C)C[C@H]1C(=O)NN(C[C@H]1CCCNC1=O)C(=O)[C@H](F)Cl [Example 168b]"
system = "HCoV-229E 3CLpro (Human coronavirus 229E, UniProt P0C6X1)"
measurement_qualifier = "="
recorded_result = 219

[[record]]
molecule = "CC(C)(C)[C@H](NC(=O)C(Cl)Cl)C(=O)N1C[C@@H]2CCC[C@@H]2[C@H]1C(=O)NN(C[C@@H]1CCNC1=O)C(=O)[C@H](F)Cl"
system = "HCoV-229E 3CLpro (Human coronavirus 229E, UniProt P0C6X1)"
measurement_qualifier = "="
recorded_result = 30

[[record]]
molecule = "CSCC[C@H](NC(=O)C(F)(F)F)C(=O)N1C[C@H]2[C@@H]([C@H]1C(=O)NN(C[C@@H]1CCNC1=O)C(=O)[C@H](F)Cl)C2(C)C"
system = "HCoV-229E 3CLpro (Human coronavirus 229E, UniProt P0C6X1)"
measurement_qualifier = "="
recorded_result = 53

[[record]]
molecule = "CCC(C)(C)[C@H](NC(=O)C(F)F)C(=O)N1C[C@@H]2CCC[C@@H]2[C@H]1C(=O)NN(C[C@@H]1CCNC1=O)C(=O)[C@@H](F)Cl"
system = "HCoV-229E 3CLpro (Human coronavirus 229E, UniProt P0C6X1)"
measurement_qualifier = "="
recorded_result = 43

[[record]]
molecule = "CCC(CC)[C@H](NC(=O)C(F)F)C(=O)N1C[C@H]2[C@@H]([C@H]1C(=O)NN(C[C@@H]1CCNC1=O)C(=O)[C@H](F)Cl)C2(C)C"
system = "HCoV-229E 3CLpro (Human coronavirus 229E, UniProt P0C6X1)"
measurement_qualifier = "="
recorded_result = 26

[[record]]
molecule = "CC1(C)[C@@H]2[C@@H](C(=O)NN(C[C@@H]3CCNC3=O)C(=O)[C@H](F)Cl)N(C(=O)[C@@H](NC(=O)C3(F)CC3)C3CCC3)C[C@@H]21"
system = "HCoV-229E 3CLpro (Human coronavirus 229E, UniProt P0C6X1)"
measurement_qualifier = "="
recorded_result = 32

[[record]]
molecule = "CC(C)(C)[C@H](NC(=O)C(F)(F)F)C(=O)N1CC2(CC2)C[C@H]1C(=O)NN(C[C@@H]1CCNC1=O)C(=O)[C@H](F)Cl"
system = "HCoV-229E 3CLpro (Human coronavirus 229E, UniProt P0C6X1)"
measurement_qualifier = "="
recorded_result = 42

